# assay_text: gradient 5% acetonitrile 3 min, to 50% in 2 min, to 85% in 15 min, held 3 min, 100 µL/min
# test_parameters: column: Zorbax Extend-C18 2.1 x 50 mm; eluents: water / acetonitrile, 0.1% formic acid
Task for the reader: assign each of the following compounds its reported RP-LC retention time.
Express the result in s but write the number alone.

Which RP-LC retention time is reported for this compound? O=C(CCn1cnc2cc(-c3noc(-c4cccs4)n3)ccc21)N1CCOCC1
672

Which RP-LC retention time is reported for this compound? CCCCc1ccc(NC(=O)CSc2nccc(N3CCCC3)n2)cc1
803

Which RP-LC retention time is reported for this compound? Cc1oc(-c2[nH]ncc2C(=O)N2CCOCC2)cc1S(=O)(=O)Nc1ccccc1
655

Which RP-LC retention time is reported for this compound? CCCc1cc(N2CCN(C(=O)c3ccc(C#N)cc3)CC2)nc2nncn12
609

Which RP-LC retention time is reported for this compound? COCCNC(=O)C(=O)NCC1CCN(C(=O)c2ccccc2F)CC1
609

Which RP-LC retention time is reported for this compound? Cc1cccc(N2CCN(Cc3nc(-c4ccc(N5CCC(C)CC5)nc4)no3)CC2)c1C
1280

Which RP-LC retention time is reported for this compound? CCc1ccc(CNC(=O)CC2CCN(C(=O)c3[nH]c(C)cc3C)CC2)cc1
857

Which RP-LC retention time is reported for this compound? CCOc1ccc(-n2ccn3cc(-c4ccc(F)cc4)nc3c2=O)cc1
860

Which RP-LC retention time is reported for this compound? COC(=O)c1cccc(NC(=O)NC(C)C(=O)N2CCc3ccccc32)c1 (stereo not given)
792

Which RP-LC retention time is reported for this compound? CCCN(CCC)C1COc2cccc(OC)c2C1 (stereo not given)
722

###

# assay_text: gradient 5% acetonitrile 3 min, to 50% in 2 min, to 85% in 15 min, held 3 min, 100 µL/min
# test_parameters: column: Zorbax Extend-C18 2.1 x 50 mm; eluents: water / acetonitrile, 0.1% formic acid
Threshold rule: RP-LC retention time greater than or equal to 700 s is True; below that, False.

Does RP-LC retention time meet or surpass 700 s for COc1ccc(C(CNC(=O)c2cc(=O)c3cc(Cl)ccc3o2)N(C)C)cc1 (stereo not given) ?
False

Does RP-LC retention time meet or surpass 700 s for COC(=O)CCNC(=O)C1c2ccccc2C(=O)N(c2ccccc2)C12CCCCC2 (stereo not given) ?
True

Does RP-LC retention time meet or surpass 700 s for CSc1ncccc1C(=O)Nc1cccc(OCc2nnc(-c3ccc(Cl)cc3)o2)c1 ?
True

Does RP-LC retention time meet or surpass 700 s for O=C(CSc1ccc(-c2ccc(-n3ccnc3)cc2)nn1)NCc1ccco1 ?
False

Does RP-LC retention time meet or surpass 700 s for O=C(NCc1ccc(F)cc1)C(=O)NCC(c1ccc2c(c1)OCO2)N1CCOCC1 (stereo not given) ?
False

Does RP-LC retention time meet or surpass 700 s for O=C(CSc1nc2ccccc2s1)OCc1cc(-c2ccco2)on1 ?
True

Does RP-LC retention time meet or surpass 700 s for Cc1ccc(C(C)NC(=O)Cn2ccc3c(C)nn(C)c3c2=O)cc1C (stereo not given) ?
True

Does RP-LC retention time meet or surpass 700 s for Cn1c(=O)n(CCCC#N)c2cncnc21 ?
False

Does RP-LC retention time meet or surpass 700 s for O=C(Nc1nc(C(=O)N2CCN(C(=O)c3ccco3)CC2)co1)c1ccsc1 ?
False
